target: Cytochrome P450 1A2 (Homo sapiens); assay: Cytochrome panel assay with activity outcomes; details: recombinant CYP, pro-luciferin dealkylation, luminescence, p450-cyp1a2; series mostly up to 57.1 µM
Among all 16,000 compounds or so, about 5,700 (36%) were called active. Roughly 24% stayed inconclusive and do not appear here. Calls come from the whole dose curve; as a rule, active = well fitted curve in the direction sought with a large enough effect; inconclusive = small, poorly fitted or top-dose-only effect, or effect the other way; inactive = no such curve, though single readings can be large or run the other way. The list shows a part of the results.
Outcome field: choose from 1 = active, 0 = inactive

INSERT INTO results (compound, label) VALUES
  ('C[C@]1(C(=O)O)[C@@H]2CC[C@@H](O2)[C@@]1(C)C(=O)O', 0),
  ('COc1ccc(Cl)cc1NC(=O)NCCCl', 1),
  ('CN1C(=O)CCS(=O)(=O)[C@@H]1c1ccc(Cl)cc1', 0),
  ('CC(C)N(CC[C@@](C(N)=O)(c1ccccc1)c1ccccn1)C(C)C', 0),
  ('C[C@@]12CC[C@H]3[C@@H](CCC4=C(O)C(=O)CC[C@]43C)[C@H]1CCC2=O', 0);

Exercise: How was C=CCn1c(O)c(C(C)=NCCCN2CCOCC2)c(=O)[nH]c1=O classified in this test?
Solution: 0

Exercise: Please answer likewise for CC[C@]1([C@H]2O[C@@H]([C@@H]3O[C@](O)(CO)[C@@H](C)C[C@H]3C)C[C@H]2C)CC[C@@H]([C@]2(C)CC[C@@]3(C[C@@H](O)[C@@H](C)[C@@H]([C@H](C)[C@H](OC)[C@H](C)C(=O)O)O3)O2)O1
Solution: 0

Exercise: Same for COC(=O)[C@H](N)CCCN=C(N)N[N+](=O)[O-]
Solution: 0

Exercise: Then COC1=CC(=O)O[C@@H](/C=C\c2ccccc2)C1 ?
Solution: 1

Exercise: And CCOP(=O)(OCC)C(NC(=O)C(Cl)Cl)C(Cl)(Cl)Cl (stereo not given) ?
Solution: 0

Exercise: Next up: CC[C@]1(c2cccc(O)c2)CCCCN(C)C1
Solution: 0

Exercise: Same for C[C@@H]1O[C@@H](O[C@H]2C[C@@H](O)[C@]3(CO)[C@@H]4[C@@H](O)C[C@]5(C)[C@H]([C@@H]6COC(=O)C6)CC[C@@]5(O)[C@H]4CC[C@@]3(O)C2)[C@H](O)[C@H](O)[C@@H]1O
Solution: 0

Exercise: Check O=C(C1CC(=O)N(C2CCCC2)C1)N1CCC2(CC1)OCCO2 (stereo not given) too.
Solution: 0

* * *

Molecular target: Cytochrome P450 1A2 (Homo sapiens) (UniProt P05177)
Sequence (P05177 whole entry, looked up): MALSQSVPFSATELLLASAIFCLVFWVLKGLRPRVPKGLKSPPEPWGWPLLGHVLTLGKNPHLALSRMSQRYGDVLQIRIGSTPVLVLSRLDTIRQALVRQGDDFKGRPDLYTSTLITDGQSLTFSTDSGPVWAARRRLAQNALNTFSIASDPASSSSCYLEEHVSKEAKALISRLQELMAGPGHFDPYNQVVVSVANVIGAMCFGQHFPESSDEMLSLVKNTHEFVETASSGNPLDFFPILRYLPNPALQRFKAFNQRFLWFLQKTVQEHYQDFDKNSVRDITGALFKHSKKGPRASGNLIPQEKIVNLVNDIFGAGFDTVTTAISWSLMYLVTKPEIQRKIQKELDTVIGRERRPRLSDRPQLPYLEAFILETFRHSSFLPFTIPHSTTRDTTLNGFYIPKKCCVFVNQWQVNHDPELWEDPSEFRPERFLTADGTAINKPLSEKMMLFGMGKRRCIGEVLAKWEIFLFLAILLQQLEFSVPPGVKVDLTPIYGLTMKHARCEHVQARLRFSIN
Assay: Cytochrome panel assay with activity outcomes
Conditions: recombinant CYP, pro-luciferin dealkylation, luminescence, p450-cyp1a2; series mostly up to 57.1 µM
Procedure: The P450 gene superfamily is involved in the metabolism and clearance of xenobiotics. This assay used various human CYP P450 isozymes to measure the dealkylation of various pro-luciferin substrates to luciferin. The luciferin is then measured by luminescence after the addition of a luciferase detection reagent. […] Inhibitors and some substrates limit the production of luciferin, and decrease measured luminescence. […] 8, Detection, 1 sec, ViewLux luminescent read […]
Among all 16,000 compounds or so, about 5,700 (36%) were called active. Not shown: some 24% with an inconclusive outcome. The call rests on the fitted dose curve; in most records, active means well fitted curve in the direction sought with a large enough effect; inconclusive means small, poorly fitted or top-dose-only effect, or effect the other way; inactive means no such curve, though single readings can be large or run the other way. This is one part of the list.
Your answer must be one of the following: true (1) for active, false (0) for inactive

INSERT INTO assay_data (molecule, system, label) VALUES
  ('NCC1(CC(=O)O)CCCCC1', 'Cytochrome P450 1A2 (Homo sapiens) (UniProt P05177)', 'false (0)'),
  ('CN1C2C=C3C(C#N)=C(N)C(C#N)(C#N)[C@H](c4c(F)cccc4F)[C@H]3C1CC2 (some centres undefined)', 'Cytochrome P450 1A2 (Homo sapiens) (UniProt P05177)', 'false (0)'),
  ('C=CCN1C[C@@H](C)N([C@H](c2ccc(C(=O)N(CC)CC)cc2)c2cccc(OC)c2)C[C@H]1C', 'Cytochrome P450 1A2 (Homo sapiens) (UniProt P05177)', 'false (0)'),
  ('C[C@@]12C(=O)OC(=O)[C@@]1(C)[C@H]1CC[C@@H]2O1', 'Cytochrome P450 1A2 (Homo sapiens) (UniProt P05177)', 'false (0)'),
  ('O=C(c1ccccc1F)c1cn(CC(=O)N2CCOCC2)c2ccccc12', 'Cytochrome P450 1A2 (Homo sapiens) (UniProt P05177)', 'false (0)'),
  ('CCN(CC)c1ccc(/C=C2/C(=O)NC(=O)N(CC3CCCO3)C2=O)cc1 (centres undefined)', 'Cytochrome P450 1A2 (Homo sapiens) (UniProt P05177)', 'true (1)'),
  ('CN(C)[C@@H]1C(=O)C(C(N)=O)=C(O)[C@]2(O)C(=O)C3=C(O)c4c(O)cccc4[C@@](C)(O)[C@H]3[C@H](O)[C@@H]12', 'Cytochrome P450 1A2 (Homo sapiens) (UniProt P05177)', 'false (0)'),
  ('C[C@@H]1O[C@H](C[N+](C)(C)C)CS1', 'Cytochrome P450 1A2 (Homo sapiens) (UniProt P05177)', 'false (0)');

Exercise: Which result was noted for this molecule in the test: C[C@]12CC[C@@H]3C(=CCc4cc(O)ccc43)[C@@H]1CCC2=O
Solution: true (1)

Exercise: Record: CS(=N)(=O)CC[C@@H](N)C(=O)O (some centres undefined)
Solution: false (0)

Exercise: Also check c1ccc(N2CC[C@@]3(CCCNC3)C2)nc1
Solution: false (0)

* * *

target: Cytochrome P450 1A2 (Homo sapiens) (UniProt P05177); assay: Cytochrome panel assay with activity outcomes; settings: recombinant CYP, pro-luciferin dealkylation, luminescence, p450-cyp1a2; series mostly up to 57.1 µM
In all, about 16,000 compounds went through this assay and about 5,700 (36%) were called active. Not shown: some 24% with an inconclusive outcome. Calls come from the whole dose curve; as a rule, active = well fitted curve in the direction sought with a large enough effect; inconclusive = small, poorly fitted or top-dose-only effect, or effect the other way; inactive = no such curve, though single readings can be large or run the other way. Some of the results follow.
Can you answer with just one of these options? active, inactive

Some solved entries appear below for comparison.
INSERT INTO measurements (molecule, system, label) VALUES
  ('CCOCCN1CCC(OC(C)=O)C(C)C1 (centres undefined)', 'Cytochrome P450 1A2 (Homo sapiens) (UniProt P05177)', 'inactive'),
  ('CC(O)(CS(=O)(=O)c1cccc(C(F)(F)F)c1)C(=O)Nc1cccc(C(F)(F)F)c1 (centres undefined)', 'Cytochrome P450 1A2 (Homo sapiens) (UniProt P05177)', 'inactive'),
  ('Cn1c(O)c(C(c2ccccn2)c2c(O)n(C)c(=S)n(C)c2=O)c(=O)n(C)c1=S', 'Cytochrome P450 1A2 (Homo sapiens) (UniProt P05177)', 'inactive'),
  ('C=C1CC[C@H](O)C/C1=C/C=C1\CCC[C@]2(C)[C@H]1CC[C@H]2[C@@H](C)CCCC(C)C', 'Cytochrome P450 1A2 (Homo sapiens) (UniProt P05177)', 'inactive'),
  ('CCCCn1c(O)c(C(CC)=Nc2ccc(OC)cc2OC)c(=O)[nH]c1=O', 'Cytochrome P450 1A2 (Homo sapiens) (UniProt P05177)', 'active'),
  ('O=C(Oc1ccccc1)N1CCC2(CCN(Cc3nccs3)CC2)CC1', 'Cytochrome P450 1A2 (Homo sapiens) (UniProt P05177)', 'inactive'),
  ('c1cc(CN2CCCC3(CCNCC3)C2)ccn1', 'Cytochrome P450 1A2 (Homo sapiens) (UniProt P05177)', 'inactive'),
  ('C[C@H]1CC[C@@]2(NC1)O[C@@H]1C[C@H]3[C@@H]4CC=C5C[C@@H](O)CC[C@]5(C)[C@@H]4CC[C@]3(C)[C@@H]1[C@@H]2C', 'Cytochrome P450 1A2 (Homo sapiens) (UniProt P05177)', 'inactive');

Proceed to the following item.
Exercise: Write down the call the test reported for this molecule. Item: O=c1[nH]c(=O)n(CCc2ccc(F)cc2)c(O)c1C=NCCCN1CCOCC1
Solution: inactive

* * *

// activity, negative = inhibition lookup, one value per entry
target: Cytochrome P450 1A2 (Homo sapiens); test: Cytochrome panel assay with activity outcomes; settings: recombinant CYP, pro-luciferin dealkylation, luminescence, p450-cyp1a2; series mostly up to 57.1 µM; for activity, negative = inhibition: % is set by controls: 0 for no effect and ±100 for the full control effect
The campaign covered roughly 16,000 compounds. About 5,700 (36%) were called active. Another 24% or so got no clear call; they are omitted. The list shows a part of the results.

// solved cases for activity, negative = inhibition follow
INSERT INTO results (molecule, measured) VALUES
  ('C[n+]1c(/C=C\c2ccc(O)c3ncccc23)[se]c2ccccc21', '-22.7% [at 2.29 µM] (inactive)'),
  ('CO[C@@H]([CH2][Hg])CN1C(=O)c2ccccc2S1(=O)=O.Cn1c(=O)c2nc[nH]c2n(C)c1=O', '-22% [at 2.29 µM] (inactive)'),
  ('C[C@@H]1[C@@H](C)N1C[C@H](O)Cn1ccnc1[N+](=O)[O-] (some centres undefined)', '-13.2% [at 11.4 µM] (inactive)'),
  ('NC(CCl)=N[C@H]1CN2CCC1CC2', '-4.08% [at 11.4 µM] (inactive)'),
  ('CO[C@H]1[C@H](O)[C@H](O[C@@H]2[C@H](Oc3cccc4c(O)c5c(=O)oc6ccc(C)c7c(=O)oc(c34)c5c67)O[C@@H](C)[C@H](O)[C@H]2O)O[C@@H](C)[C@@H]1O', '-16.6% [at 11.4 µM] (inactive)');

Exercise: # activity, negative = inhibition lookup, item C[C@H](Br)C(=O)N[C@H](CO)C(=O)O
Solution: -13.1% [at 11.4 µM] (inactive)

Exercise: Consider next the molecule O=C(O)/C=C\c1ccc[c]([Sb](=[O])([OH])[OH])c1 in the same way.
Solution: -9.5% [at 2.29 µM] (inactive)

Exercise: And Cc1cc[c]([Sb]2[O][C@H]([C@H](O)[C@H](O)C(=O)O)[C@@H](CO)[O]2)cc1 ?
Solution: -11.9% [at 11.4 µM] (inactive)

Exercise: Ok, now CSCC[C@@H](N)P(C)(=O)O
Solution: -11% [at 11.4 µM] (inactive)

Exercise: Same read-out for CC1=NN(c2ccc(S(=O)(=O)O)cc2C)C(=[OH+])[C@H]1N=Nc1cc(S(=O)(=O)O)ccc1C(=O)O.O.[Cr] ?
Solution: -12.7% [at 11.4 µM] (inactive)

Exercise: Item: C[C@@]12CC[C@H](O)C[C@@H]1CC[C@@H]1[C@@H]2CC[C@@]2(C)[C@@H](C3=CC(=O)OC3)[C@H](O)C[C@]12O
Solution: -18.3% [at 11.4 µM] (inactive)

Exercise: Same question, CC[C@H]1CN2CCc3cc(OC)c(OC)cc3[C@H]2C[C@@H]1C[C@H]1NCCc2c1[nH]c1ccc(O)cc21 this time
Solution: -7.35% [at 11.4 µM] (inactive)

Exercise: Same thing, different molecule: NCCc1ccc(S(=O)(=O)O)cc1[N+](=O)[O-]
Solution: -6.66% [at 11.4 µM] (inactive)

Exercise: Next molecule up: CN(C)CCCc1c[nH]c2ccccc12
Solution: -12.5% [at 11.4 µM] (inactive)

Exercise: Likewise for COc1cc2c(cc1OC)[C@@]13CCN4CC5=CCO[C@H](CC(=O)O)[C@@H]([C@H]1N2)[C@H]5C[C@H]43 ?
Solution: -21.3% [at 11.4 µM] (inactive)

Exercise: What would you report for COc1cc2c(cc1OC)[C@]13CC[N@+]4(C)CC5=CCO[C@H]6CC(=O)N2[C@@H]1[C@@H]6[C@@H]5C[C@]34O ?
Solution: -11.4% [at 2.29 µM] (inactive)

Exercise: And what about the molecule N[C@H](Cc1c[nH]c2ccccc12)P(=O)(O)O ?
Solution: -15.7% [at 11.4 µM] (inactive)

Exercise: Can you check COc1cccc2c1[C@H](CO)N1[C@H](C#N)[C@@H]3C[C@H](C(=O)O)[C@@H]([C@@H]1C2)N3C next?
Solution: -21% [at 2.29 µM] (inactive)

Exercise: Another molecule: c1ccc(C[N+]23CN4CN(CN(C4)C2)C3)cc1
Solution: -10.1% [at 2.29 µM] (inactive)
